Entries annotated with measured MFI
Target: T1, human IL-23 (IL-23-His-Biotin) (human, UniProt Q9NPF7 20-189; P29460 23-328, biotin label, site not stated)
T1 construct: Akesobio lot 20161209; His-tagged and biotinylated
T1 sequence (looked up) 1: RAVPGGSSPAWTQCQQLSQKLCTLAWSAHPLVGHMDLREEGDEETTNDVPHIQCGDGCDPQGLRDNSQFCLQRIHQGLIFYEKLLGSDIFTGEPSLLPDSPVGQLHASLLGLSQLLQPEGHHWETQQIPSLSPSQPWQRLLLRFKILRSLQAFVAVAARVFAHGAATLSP
T1 sequence (looked up) 2: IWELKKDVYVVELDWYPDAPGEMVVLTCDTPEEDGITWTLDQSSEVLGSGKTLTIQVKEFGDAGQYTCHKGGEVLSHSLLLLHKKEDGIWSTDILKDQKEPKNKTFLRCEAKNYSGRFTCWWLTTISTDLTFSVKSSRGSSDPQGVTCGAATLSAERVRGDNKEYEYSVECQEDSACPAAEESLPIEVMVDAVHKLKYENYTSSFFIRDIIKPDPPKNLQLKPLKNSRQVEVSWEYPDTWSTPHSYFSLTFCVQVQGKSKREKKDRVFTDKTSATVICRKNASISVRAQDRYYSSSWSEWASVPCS
Assay: FACS competition, IL-23-His-Biotin 2 µg/mL on 293T-IL-12Rβ1&IL-23R cells; antibody 0.01 µg/mL
Please respond with the number in MFI and leave the unit unwritten.

In: Which MFI is listed for H5L14 (antibody, human IgG1, kappa, V domains shown, human IgG1 / kappa constant regions; also called humanized antibody H5L14) VH: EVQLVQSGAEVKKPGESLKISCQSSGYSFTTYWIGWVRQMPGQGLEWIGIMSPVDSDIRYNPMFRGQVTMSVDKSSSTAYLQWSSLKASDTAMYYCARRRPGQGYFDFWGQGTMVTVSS VL: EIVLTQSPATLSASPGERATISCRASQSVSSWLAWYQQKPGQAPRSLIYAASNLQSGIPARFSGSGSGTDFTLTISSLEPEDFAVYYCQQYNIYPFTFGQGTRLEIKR ?
Out: 218

In: Which MFI is listed for H5L12 (antibody, human IgG1, kappa, V domains shown, human IgG1 / kappa constant regions; also called humanized antibody H5L12) VH: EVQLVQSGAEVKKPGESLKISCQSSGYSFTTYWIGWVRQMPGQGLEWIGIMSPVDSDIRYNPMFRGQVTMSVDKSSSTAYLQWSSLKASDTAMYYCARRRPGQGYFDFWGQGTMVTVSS VL: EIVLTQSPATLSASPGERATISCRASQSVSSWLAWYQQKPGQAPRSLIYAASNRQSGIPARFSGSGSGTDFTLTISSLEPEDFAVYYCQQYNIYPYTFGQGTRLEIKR ?
Out: 221
